assay: yeast display, Sf9 membrane polyspecificity reagent, FACS + sequencing; frameworks hold sequencing errors
endpoint label: polyreactivity (PSR sort gate)

See these solved cases before continuing.
{"sequence chain": "QVQLVESGGGLVQAGGSLRLSCAASGSIFLSYDMGWYRQAPGKERELVAAITQSGGSTYYADSVKGRFTISRDNAKNTVYLQMNSLKPEDTAVYYCAKEGDSGYWFDYWGQGTQVTVSS", "polyreactivity (PSR sort gate)": "low polyreactivity"}
{"sequence chain": "QVQLVESGAGLVQAGGSLRLSCAASGYAMGWYRQAPGKERELVAAITSNGGRTYYADSVKGRFTISRDYAKNTVYLEMNSLKPEDTAVYYCATRTGPHYKTRWTYDQGYWGQGTQVTVSS", "polyreactivity (PSR sort gate)": "low polyreactivity"}
{"sequence chain": "QVQLVESGGGLVQAGGSLRLSCAASGLTFKRYAMGWYRQAPGKERELVASITGNGGSTYYADSVKGRFTISRDNAKNTFYLQMNSLKPEDTAVYYCNVGYRGWSVNSWGQGTQVTVSS", "polyreactivity (PSR sort gate)": "high polyreactivity"}
{"sequence chain": "QVQIVESGGGLVQAGGSLRVSCAASGSIYTYNGMGWYRQAPWKERELDAAISASGGRTYYADSVKGRYTISRDNAKNTVYLQMNRLKPEDNAVYYCAARILVSGLSRFDYWGQGTQVTVSA", "polyreactivity (PSR sort gate)": "high polyreactivity"}

Then this sequence:
What value of measured polyreactivity (PSR sort gate) is listed for QVQLVESGGGLVQAGGSIRLSCAASGFTFDQYAMGWYRQAPGKERELVAAISSGTRTYYADSVKGRFTISRDNAKNTVYLQMNSLKPEDTAVYYCIARSVRYRDLYDYWGQGTQVTVSS ?
low polyreactivity

###

assay: yeast display, Sf9 membrane polyspecificity reagent, FACS + sequencing; frameworks hold sequencing errors

{"sequence chain": "QVQLVESGGGLVQAGGRLRLSCAASGRTFVYNALGWYRQAPGKERELVAAISQSGGSTYYADSVKGRFTISRDNAKITVYFQMNSLKPEDTAVYYCADRYKTGSYVRYNFWGQGTQVTVSS", "polyreactivity (PSR sort gate)": "high polyreactivity"}
{"sequence chain": "QVQLVESGGGLVQAGGSLRLSCAASGSIFYIYAMVWYRQAPGKERELVATITRGGSSYADSVKGRFTISRDNAKNTVYFQMNSLIPEDTAVYYCAADVFKYWSQQTSTVYDYWGQGTQVTVSS", "polyreactivity (PSR sort gate)": "high polyreactivity"}
{"sequence chain": "QVQLVESGGGLVQAVGSLRLSCAASGFTFTNYAMGWSRQAPVKEREFVAAISGTGGSTYYADSVKGRFTISRDNAYNTEYLQMNSLKPEDTAVYYCARRRTYPPGRYYYLGQGTQVTVSS", "polyreactivity (PSR sort gate)": "high polyreactivity"}

###

experiment: yeast display, Sf9 membrane polyspecificity reagent, FACS + sequencing; frameworks hold sequencing errors
endpoint label: polyreactivity (PSR sort gate)

See these solved cases before continuing.
{"sequence chain": "QVHLVDSGGGLVQAGGSLRLTCAASGITFYRYAMGWYRQAPWKERELVAAITGGGRTYYADSVKGRFTISRDNAKNTVYLQMNSLKPEDTAVYYCNVRTLHSVRGYDYWGQGTQVTVSS", "polyreactivity (PSR sort gate)": "high polyreactivity"}
{"sequence chain": "QVQLVESGGGLVQAGGSLRLSCAASGRKFNGYDMGWYRQAPGKERELVAPINNSGGTDNTYYADSVKGRFTISRDNAKNTVYLQMNSLKPEDTAVYYCNAGPVWDQWWLYYYWGQGTQVTVSS", "polyreactivity (PSR sort gate)": "high polyreactivity"}
{"sequence chain": "QVHLVESGGVLLQAGGSLRLSCAASGFIFKWNAMGWYRQAPGKERELVAAISWHGGSTNYADSVKGRFTISRDNAKNTVYLQMNSLKPEDTAVYYCAKQQSPYYPSTLDYWGQGTQVTVSS", "polyreactivity (PSR sort gate)": "high polyreactivity"}
{"sequence chain": "QVQLVESGGGLVQAGGSLRLSCAASGFTFANNAMGWYRQAPGKERELVAAISWNGGSTFYADSVKGRFTISRDNAKNTVYLQMNSLKPEDTAVYYCNTVASYYRWKSYYYWGQGTQVTVSS", "polyreactivity (PSR sort gate)": "high polyreactivity"}
{"sequence chain": "QAQLVETGGGLVQAGGSRRLSCAASGRTYKGYVMGWYRQAPGKEREFVAVITRDGGSTYYAVSVKGRFTISRDNAKNTVYLEMKSLKPEDTEVYYCASTYYPVAGEYDYWGQGTKVTVSS", "polyreactivity (PSR sort gate)": "low polyreactivity"}

Then this sequence:
What value of measured polyreactivity (PSR sort gate) is listed for QVQLVESGGGLVQAGGNLRLSCAASGGIFYLYAMGWYRPAPGKERELVASINWRSATTYYADSVKGRFTISRDNAKNTVYLQMNSLKPEDTAVYYCNVQWYGGYDYWGQGSQVTVSS ?
low polyreactivity

###

assay: yeast display, Sf9 membrane polyspecificity reagent, FACS + sequencing; frameworks hold sequencing errors
endpoint label: polyreactivity (PSR sort gate)

{"sequence chain": "QVQLVESGGGLVQAGGSLRLICAASGRTFSTYAMGWYRQAPGKERELVAAISSGGGRTYYADSVKGRFTISRDNAKNTVYLQMNSLKPEDTAVYYCAADRYVRSRRSYEYWGQGTQVTVSS", "polyreactivity (PSR sort gate)": "low polyreactivity"}
{"sequence chain": "QVQLVESGGGLVQAGGSLRLSCAASGRIFSRNAMGRYSQAPGKERELVAAIRWRSGSTYYADSVKGRFTISRDNAKNTVYLQMNSLNPEDTAVYYCAASGPGYSRYTQYDSWGQGTQVTESS", "polyreactivity (PSR sort gate)": "high polyreactivity"}
{"sequence chain": "QVQLVESGGGLVQAGGSLRLSCAASGNIFQKYAMGWYRQAPGKERELVAAIRRGDRTYADSVKGRFTISRDNAKNTVYLQMISLKPEDTAVYYCAAPQVWWGYYTRGVDYWGQGTQVTVSS", "polyreactivity (PSR sort gate)": "low polyreactivity"}
{"sequence chain": "QVQLVESGGGLVQAGGSLRLSCAASGRIFLYNAMGWYRQAPGKEREFVATISYSGGRTNYADSVKGRFTISRDNAKNTVYLQMNSLKPEDTAVYYCAARWPWFYAHAYDYWGQGTQVTVSS", "polyreactivity (PSR sort gate)": "high polyreactivity"}

Then this sequence:
What value of measured polyreactivity (PSR sort gate) is listed for QVQLVESAAGLVQAGGSLRLSCAASGLNFASYGMGGYRQAPGKERELVAAISSSVGNTYYADSVKGRFTISRDYAKNTVYLQMNSLNPEDTAVYYCAAAKRSGYTGFKYYYWGQGTQVTVSS ?
high polyreactivity

###

test: yeast display, Sf9 membrane polyspecificity reagent, FACS + sequencing; frameworks hold sequencing errors
endpoint label: polyreactivity (PSR sort gate)

See these solved cases before continuing.
{"sequence chain": "QVQLVESGGGLVQAGGSLRLSCAASGSIFRINAMGWYRQAPGKERELVAAITRSGGSTFYADSVKGRFTISRDNAKNTVYLQMNSLKPEDTAVYYCAAVWYYSTVPARYEYWGQGTQVTVSS", "result": "low polyreactivity"}
{"sequence chain": "QVQLVESGGGLVQAGGSLRLSCAASGRTFSAYAMVWYRQAPGKERELVAAISRRGGSTYYADSVKGRFTISRDNAKNTVYLQMKSLKPEDTAVYYCAADVYKQYGYYFWGQGTQVTVSS", "result": "high polyreactivity"}
{"sequence chain": "QVQLVESGGGLVQAGGSLRLSCAASGFTLRSYTMGWYRQAPGKERELVAAITSRGTSTYYADSVKGRFTISRDNAKNTVYLQMNSLKPEDTAVYYCADPIYNGYASWQVYYWGQGTQVTVSS", "result": "high polyreactivity"}
{"sequence chain": "QVQLVESGGGLVQAGGSLRLSCAASGSTFTGNAMGWYRQAPGKERELVAAITDRGGSTYADSVKGRFTISRDNAKNTVYLQMNSLKPEDTAVYYCATRRDLHDRYEYDYWGQGTQVTVSS", "result": "low polyreactivity"}
{"sequence chain": "QVQLVESGGGLVQAGGSLRLSCAASGFTFPYYAMGWYRQAPGKERELVADITSGGGTNYADSVKGRFTISRDNAKNTVFLQMNSLKPEDTAVYYCAADAYHQGMDYWGQGTQVTVSS", "result": "low polyreactivity"}
{"sequence chain": "QVQLVESGGGLVQAGGSLRLSCAASGIISYLYAMGCYRQAPGKEREWVAVIRTSDAITYYADSVKGRFTISRDNAKNTVYLQMNSLKPQDTAVYYCAAAGYAWWGEYEYWGQGTLVTVSS", "result": "high polyreactivity"}
{"sequence chain": "QVQIVESGGGLVQAGCSLRLSCAASGSTFLSNAMGLYRQAPGKERELVATNSFSRATYADSVKGRFTISRDNAKNTVYLQMNSLKPVDTAVYYCNRATINFSGKGDTAYDYWGQGTQVTVSS", "result": "low polyreactivity"}
{"sequence chain": "QVQLVESGGGLVQAGGSLRLSCAASGIIFGKNAMGWYRQAPGKERELVAAISRRGGGTYYADSVKGRFTISRDNAKNTVYLQMNSLKPEDTAVYYCAVKVGYVRLLYHYYYWGQGTQVTVSS", "result": "high polyreactivity"}

Then this sequence:
What value of measured polyreactivity (PSR sort gate) is listed for QVQLVESGGGLVQAGGSLRLSCAASGRTFRLYAMGWYRQAPGKERELVAVIRAGDSTNYADSVKGRFTISRDNAKNTVYLQLNSLKPDDTAVSYCAADVLYYYGKYDYWGQGTQVTVSS ?
high polyreactivity
